fluorescence slope by entry:
# SYSTEM UNDER TEST: Muscarinic acetylcholine receptor M4 (Homo sapiens) (UniProt P08173)
# Sequence (P08173 whole entry, looked up): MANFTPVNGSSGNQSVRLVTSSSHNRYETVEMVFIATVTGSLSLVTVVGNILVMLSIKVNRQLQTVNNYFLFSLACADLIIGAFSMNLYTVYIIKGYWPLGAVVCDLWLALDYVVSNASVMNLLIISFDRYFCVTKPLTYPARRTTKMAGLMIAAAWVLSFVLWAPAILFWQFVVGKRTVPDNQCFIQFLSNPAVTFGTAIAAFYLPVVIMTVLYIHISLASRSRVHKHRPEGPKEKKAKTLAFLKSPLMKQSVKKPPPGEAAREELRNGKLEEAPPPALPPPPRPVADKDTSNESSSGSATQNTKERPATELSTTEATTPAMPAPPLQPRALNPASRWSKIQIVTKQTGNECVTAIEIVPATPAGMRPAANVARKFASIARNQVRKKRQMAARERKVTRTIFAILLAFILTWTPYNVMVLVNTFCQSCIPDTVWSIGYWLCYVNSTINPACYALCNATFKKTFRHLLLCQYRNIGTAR
# PROCEDURE DETAILS: compounds altering M4/GIRK thallium flux, either direction, primary screen, M4 allosteric agonist project, cell-based, HEK293 M4/GIRK, BTC-AM (AID 625);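 note: thallium influx through GIRK channels coupled to M4 in HEK293 cells with BTC-AM dye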
# EXPERIMENTAL CONTEXT: at 10 µM, actives lie on both sides

- COMPOUND: "O=c1[nH]c(CN(CCO)CCO)nc2c1C1(CCCCC1)Cc1ccccc1-2"
  SYSTEM UNDER TEST: "Muscarinic acetylcholine receptor M4 (Homo sapiens) (UniProt P08173)"
  fluorescence slope: 0.00503
- COMPOUND: "CC12CN3CC(=O)N4CC5(C)CN(CC(C)(C4)C5=O)C(=O)CN(C1)CC(C)(C3)C2=O"
  SYSTEM UNDER TEST: "Muscarinic acetylcholine receptor M4 (Homo sapiens) (UniProt P08173)"
  fluorescence slope: 0.00461
- COMPOUND: "Cn1c(NCc2cccnc2)nc2c1c(=O)n(Cc1ccccc1F)c(=O)n2C"
  SYSTEM UNDER TEST: "Muscarinic acetylcholine receptor M4 (Homo sapiens) (UniProt P08173)"
  fluorescence slope: 0.00566
- COMPOUND: "N#Cc1cccc(-n2c(-c3ccccc3)nnc2-c2ccccc2)c1C#N"
  SYSTEM UNDER TEST: "Muscarinic acetylcholine receptor M4 (Homo sapiens) (UniProt P08173)"
  fluorescence slope: 0.00624
- COMPOUND: "CCCc1cc(=O)oc2c(CN3CCCC3)c(O)ccc12"
  SYSTEM UNDER TEST: "Muscarinic acetylcholine receptor M4 (Homo sapiens) (UniProt P08173)"
  fluorescence slope: 0.0058
- COMPOUND: "Cc1ccc(C2/C(=C(\\O)c3ccc4c(c3)OCCO4)C(=O)C(=O)N2CCCN(C)C)o1 (configuration not stated)"
  SYSTEM UNDER TEST: "Muscarinic acetylcholine receptor M4 (Homo sapiens) (UniProt P08173)"
  fluorescence slope: 0.00787
- COMPOUND: "CCCCC(=O)C1CCN(Cc2ccccc2)CC1"
  SYSTEM UNDER TEST: "Muscarinic acetylcholine receptor M4 (Homo sapiens) (UniProt P08173)"
  fluorescence slope: 0.00375
- COMPOUND: "CC(=O)NC(=O)Nc1sc(=S)n(C)c1C"
  SYSTEM UNDER TEST: "Muscarinic acetylcholine receptor M4 (Homo sapiens) (UniProt P08173)"
  fluorescence slope: 0.00528
- COMPOUND: "CCOC(=O)C1=C(C)N=C2SC(C)C(=O)N2C1c1ccc(C(=O)OC)cc1 (configuration not stated)"
  SYSTEM UNDER TEST: "Muscarinic acetylcholine receptor M4 (Homo sapiens) (UniProt P08173)"
  fluorescence slope: 0.00536
- COMPOUND: "CC1(C)Cc2c(c(N3CCOCC3)nc3sc4c(=O)[nH]cnc4c23)CS1"
  SYSTEM UNDER TEST: "Muscarinic acetylcholine receptor M4 (Homo sapiens) (UniProt P08173)"
  fluorescence slope: 0.00568
- COMPOUND: "C=C(C)CC1N(c2cccc(OC)c2)C(=O)[C@@H]2C(C(=O)O)[C@H]3C=C[C@@]12O3 (some centres not stated)"
  SYSTEM UNDER TEST: "Muscarinic acetylcholine receptor M4 (Homo sapiens) (UniProt P08173)"
  fluorescence slope: 0.00494
- COMPOUND: "O=C(CC(c1ccc(F)cc1)c1ccco1)N1CCCC1 (configuration not stated)"
  SYSTEM UNDER TEST: "Muscarinic acetylcholine receptor M4 (Homo sapiens) (UniProt P08173)"
  fluorescence slope: 0.00541
- COMPOUND: "Cc1sc(-n2c(C)ccc2C)c(C#N)c1C"
  SYSTEM UNDER TEST: "Muscarinic acetylcholine receptor M4 (Homo sapiens) (UniProt P08173)"
  fluorescence slope: 0.00469
- COMPOUND: "Cc1ccc(C2CC(c3cccs3)n3nc(N)nc3N2)cc1 (configuration not stated)"
  SYSTEM UNDER TEST: "Muscarinic acetylcholine receptor M4 (Homo sapiens) (UniProt P08173)"
  fluorescence slope: 0.00581
- COMPOUND: "N#Cc1nc(-c2cccs2)oc1NCc1ccc2c(c1)OCO2"
  SYSTEM UNDER TEST: "Muscarinic acetylcholine receptor M4 (Homo sapiens) (UniProt P08173)"
  fluorescence slope: 0.00406
- COMPOUND: "O=C(NCCC1=CCCCC1)c1ccc(=O)oc1"
  SYSTEM UNDER TEST: "Muscarinic acetylcholine receptor M4 (Homo sapiens) (UniProt P08173)"
  fluorescence slope: 0.00522
- COMPOUND: "O=C1C(=O)N(Cc2cccnc2)C(c2ccccn2)/C1=C(/O)c1ccc(F)cc1 (configuration not stated)"
  SYSTEM UNDER TEST: "Muscarinic acetylcholine receptor M4 (Homo sapiens) (UniProt P08173)"
  fluorescence slope: 0.00549
- COMPOUND: "CC(NC(=O)OCc1ccccc1)C(=O)OCN1C(=O)c2ccccc2C1=O (configuration not stated)"
  SYSTEM UNDER TEST: "Muscarinic acetylcholine receptor M4 (Homo sapiens) (UniProt P08173)"
  fluorescence slope: 0.00711
- COMPOUND: "O=C(CN1C(=O)c2ccccc2S1(=O)=O)NCCSCc1ccco1"
  SYSTEM UNDER TEST: "Muscarinic acetylcholine receptor M4 (Homo sapiens) (UniProt P08173)"
  fluorescence slope: 0.00395
- COMPOUND: "COc1cc(C2C(C(C)=O)=C(O)C(=O)N2c2ccc(Br)cn2)ccc1O (configuration not stated)"
  SYSTEM UNDER TEST: "Muscarinic acetylcholine receptor M4 (Homo sapiens) (UniProt P08173)"
  fluorescence slope: 0.00394
- COMPOUND: "COc1ccc(/C(O)=C2/C(=O)C(=O)N(CCCN(C)C)C2c2ccc(C)o2)cc1Cl (configuration not stated)"
  SYSTEM UNDER TEST: "Muscarinic acetylcholine receptor M4 (Homo sapiens) (UniProt P08173)"
  fluorescence slope: 0.0051
- COMPOUND: "N#C/C(C(=O)N1CCCCC1)=C1\\Nc2ccccc2S1"
  SYSTEM UNDER TEST: "Muscarinic acetylcholine receptor M4 (Homo sapiens) (UniProt P08173)"
  fluorescence slope: 0.00412
